- Tested on: human liver carcinoma HepG2 cells
- METHOD DESCRIPTION: MTT cytotoxicity assay against HepG2 cells
- Format: cell-based
- CONDITION SET: concentration LogC 1.4 (µM)
OBSERVATION TYPE: HepG2-Cell Viability (%)

INSERT INTO measurements (compound, observation_type, unit_annotation, result_number) VALUES
  ('COc1ccc(Br)c2cc(C(=O)NC(C)=O)c(=O)oc12', 'HepG2-Cell Viability (%)', '%', 53.19),
  ('COc1ccc(Br)c2cc(C(=O)O)c(=O)oc12', 'HepG2-Cell Viability (%)', '%', 50.19),
  ('COc1cccc2cc(C(N)=O)c(=O)oc12 [Compound 4, 8-Methoxycoumarin-3-carboxamide]', 'HepG2-Cell Viability (%)', '%', 47.29),
  ('COc1cccc2cc(C(=O)NC(C)=O)c(=O)oc12 [Compound 6, N-acetyl 8-methoxycoumarin-3-carboxamide]', 'HepG2-Cell Viability (%)', '%', 37.53);

----------
The entries below come with measured HepG2-Cell Viability (%) values attached.
- Tested on: human liver carcinoma HepG2 cells
- METHOD DESCRIPTION: MTT cytotoxicity assay against HepG2 cells
- Type: cell-based
- CONDITION SET: concentration LogC 0.8 (µM)
OBSERVATION TYPE: HepG2-Cell Viability (%)

INSERT INTO measurements (molecule, unit_annotation, result_number) VALUES
  ('COc1cccc2cc(C(=O)NC(C)=O)c(=O)oc12 [Compound 6, N-acetyl 8-methoxycoumarin-3-carboxamide]', '%', 44.64),
  ('COc1cccc2cc(C(N)=O)c(=O)oc12 [Compound 4, 8-Methoxycoumarin-3-carboxamide]', '%', 57.78),
  ('COc1ccc(Br)c2cc(C(=O)O)c(=O)oc12', '%', 55.34),
  ('COc1ccc(Br)c2cc(C(=O)NC(C)=O)c(=O)oc12', '%', 60.52);

----------
OBSERVATION TYPE: melting point (°C)

INSERT INTO assay_data (compound, observation_type, unit_annotation, result_number) VALUES
  ('COc1cccc2cc(C(=O)O)c(=O)oc12 [Compound 8, 8-methoxycoumarin-3-carboxylic acid]', 'melting point', '°C', 186),
  ('COc1ccc(Br)c2cc(C(=O)NC(C)=O)c(=O)oc12 [Compound 7]', 'melting point', '°C', 220),
  ('COc1cccc2cc(C(N)=O)c(=O)oc12 [Compound 4, 8-Methoxycoumarin-3-carboxamide]', 'melting point', '°C', 253),
  ('COc1cccc2cc(C(=O)NC(C)=O)c(=O)oc12 [Compound 6, N-acetyl 8-methoxycoumarin-3-carboxamide]', 'melting point', '°C', 285),
  ('COc1ccc(Br)c2cc(C(=O)O)c(=O)oc12 [Compound 9]', 'melting point', '°C', 210);

----------
- Test system: human liver carcinoma HepG2 cells
- METHOD DESCRIPTION: MTT cytotoxicity assay against HepG2 cells
- Format: cell-based
- CONDITION SET: concentration LogC 2 (µM)
The entries below come with measured HepG2-Cell Viability (%) values attached.
OBSERVATION TYPE: HepG2-Cell Viability (%)

INSERT INTO assay_data (molecule, result_number) VALUES
  ('COc1ccc(Br)c2cc(C(=O)NC(C)=O)c(=O)oc12', 45.03),
  ('COc1ccc(Br)c2cc(C(=O)O)c(=O)oc12', 42.17),
  ('COc1cccc2cc(C(N)=O)c(=O)oc12 [Compound 4, 8-Methoxycoumarin-3-carboxamide]', 37.94),
  ('COc1cccc2cc(C(=O)NC(C)=O)c(=O)oc12 [Compound 6, N-acetyl 8-methoxycoumarin-3-carboxamide]', 27.04);

----------
- Test system: human liver carcinoma HepG2 cells
- METHOD DESCRIPTION: MTT cytotoxicity assay against HepG2 cells
- Format: cell-based
- CONDITION SET: concentration LogC 0.19 (µM)
The entries below come with measured HepG2-Cell Viability (%) values attached.
OBSERVATION TYPE: HepG2-Cell Viability (%)

INSERT INTO measurements (compound, result_number) VALUES
  ('COc1ccc(Br)c2cc(C(=O)O)c(=O)oc12', 66.86),
  ('COc1cccc2cc(C(N)=O)c(=O)oc12 [Compound 4, 8-Methoxycoumarin-3-carboxamide]', 65.8),
  ('COc1cccc2cc(C(=O)NC(C)=O)c(=O)oc12 [Compound 6, N-acetyl 8-methoxycoumarin-3-carboxamide]', 54.47),
  ('COc1ccc(Br)c2cc(C(=O)NC(C)=O)c(=O)oc12', 68.52);

----------
- System: human liver carcinoma HepG2 cells
- METHOD DESCRIPTION: MTT cytotoxicity assay against HepG2 cells
- Type: cell-based
- CONDITION SET: Homo sapiens, HepG2, 24 h, HepG2 cells, MTT, 24 h treatment
OBSERVATION TYPE: IC50

INSERT INTO measurements (compound, result) VALUES
  ('COc1ccc(Br)c2cc(C(=O)O)c(=O)oc12', '41 µM'),
  ('COc1cccc2cc(C(=O)O)c(=O)oc12', '5 µM'),
  ('COc1ccc(Br)c2cc(C(N)=O)c(=O)oc12 [Compound 5, 5-Bromo-8-methoxycoumarin-3-carboxamide]', '0.9 µM'),
  ('COc1cccc2cc(C(N)=O)c(=O)oc12 [Compound 4, 8-Methoxycoumarin-3-carboxamide]', '17 µM'),
  ('COc1ccc(Br)c2cc(C(=O)NC(C)=O)c(=O)oc12', '2.3 µM');

----------
- Tested on: human liver carcinoma HepG2 cells
- METHOD DESCRIPTION: MTT cytotoxicity assay against HepG2 cells
- Format: cell-based
- CONDITION SET: HepG2 cells
OBSERVATION TYPE: Structure–activity summary of cytotoxic activity (Fig. 4B)

INSERT INTO measurements (compound, result) VALUES
  ('COc1cccc2cc(C(N)=O)c(=O)oc12 [Compound 4, 8-Methoxycoumarin-3-carboxamide]', 'moderate activity'),
  ('COc1cccc2cc(C(=O)NC(C)=O)c(=O)oc12 [Compound 6, N-acetyl 8-methoxycoumarin-3-carboxamide]', 'moderate activity'),
  ('COc1cccc2cc(C(=O)O)c(=O)oc12', 'moderate activity'),
  ('COc1ccc(Br)c2cc(C(=O)NC(C)=O)c(=O)oc12', 'improved activity'),
  ('COc1ccc(Br)c2cc(C(N)=O)c(=O)oc12 [Compound 5, 5-Bromo-8-methoxycoumarin-3-carboxamide]', 'improved activity');
